# PROTOCOL: Oral bioavailability of BAU
# CONDITION DESCRIPTION: in vivo, 43 mg/kg, drinking water, read-out: bioavailability of BAU administered orally
MEASURED METRIC: bioavailability (%)
Kindly answer with a numeric value in %, unit omitted.

(Q) Identify bioavailability associated with the compound O=c1[nH]c(=O)n(COCCO)cc1Cc1ccccc1 [BAU, 5-benzylacyclouridine]
(A) 80
